Please respond with reported IC50 for every item in the list.
Molecular target: full-length beta-Catenin (Uniprot ID P35222) (Homo sapiens, UniProt P35222)
Construct: 10 nM full-length beta-Catenin (Uniprot ID P35222)
Sequence (P35222 1-781): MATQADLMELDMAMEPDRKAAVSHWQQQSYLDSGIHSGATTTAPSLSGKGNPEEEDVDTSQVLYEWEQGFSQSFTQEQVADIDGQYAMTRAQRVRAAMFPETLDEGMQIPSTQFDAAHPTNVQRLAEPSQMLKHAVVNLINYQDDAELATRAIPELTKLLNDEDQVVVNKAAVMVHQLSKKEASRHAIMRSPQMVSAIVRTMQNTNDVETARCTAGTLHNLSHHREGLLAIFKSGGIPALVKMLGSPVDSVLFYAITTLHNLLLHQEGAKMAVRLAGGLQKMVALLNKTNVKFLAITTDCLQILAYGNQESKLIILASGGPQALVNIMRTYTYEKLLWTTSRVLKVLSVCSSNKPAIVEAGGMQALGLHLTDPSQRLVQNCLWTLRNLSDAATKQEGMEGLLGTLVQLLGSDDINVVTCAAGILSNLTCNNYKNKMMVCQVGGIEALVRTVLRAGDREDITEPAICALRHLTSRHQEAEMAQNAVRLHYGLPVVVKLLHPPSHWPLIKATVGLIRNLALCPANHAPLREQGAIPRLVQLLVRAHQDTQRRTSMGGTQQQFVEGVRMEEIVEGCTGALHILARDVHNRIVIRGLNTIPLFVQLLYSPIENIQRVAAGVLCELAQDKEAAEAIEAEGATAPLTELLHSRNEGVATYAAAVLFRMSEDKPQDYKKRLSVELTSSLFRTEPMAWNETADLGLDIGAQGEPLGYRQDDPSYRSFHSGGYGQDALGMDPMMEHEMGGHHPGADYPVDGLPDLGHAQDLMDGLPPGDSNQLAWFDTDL
Test: Fluorescence polarization IC50 (beta-catenin / 5FAM-TCF4 10-53 competition)
Assay type: binding
Conditions: beta-Catenin FP IC50 (nM), fluorescence polarization
Numbers only here, please. The scale is nM.

Quick check: IC50 of CC(C)C[C@@H]1NC(=O)[C@H](Cc2ccccc2)NC(=O)[C@H](C)NC(=O)[C@H](C)NC(=O)[C@H](Cc2cccc(C(=O)O)c2)NC(=O)[C@H](CC(=O)O)NC(=O)C2(CCCC=CCCCOC(=O)N3CC[C@@](C(=O)N[C@@H](Cc4ccccc4Cl)C(=O)N[C@@H](Cc4csc5ccccc45)C(=O)N[C@@H](C)C(N)=O)(C3)NC1=O)CCCC=CC[C@]1(CCCN1C(=O)CBr)C(=O)N[C@@H](CC(=O)O)C(=O)N[C@@H](CC(C)(C)C)C(=O)N2 (some centres unmarked) ?
88

Quick check: IC50 of CC(=O)N1CC2CC1C(=O)N[C@@H](CC(=O)O)C(=O)N[C@@H](CC(C)(C)C)C(=O)NC1(CCCCCCCCOC(=O)N3CC[C@@](C(=O)N[C@@H](Cc4ccsc4)C(=O)N[C@@H](Cc4csc5ccccc45)C(=O)N[C@@H](CCC(N)=O)C(N)=O)(C3)NC(=O)[C@H](CC(C)C)NC(=O)[C@H](Cc3ccccc3)NC(=O)[C@H](C)NC(=O)[C@H](C)NC(=O)[C@H](CN(CC(=O)O)CC(F)(F)F)NC(=O)[C@H](CC(=O)O)NC1=O)CCCCCCOc1cccc(c1)CC(=O)O2 (some centres unmarked) ?
242

----------
Target: beta-catenin/TCF4 engagement (Homo sapiens)
Construct: expressed in transfected cells; host or cells: HEK293
Assay: Nano-BRET target engagement assay (B-cat-Halo & TCF4-Luc in HEK293 cells)
Assay type: cell-based
Conditions: absolute IC50; read-out: NanoBRET Abs IC50
pIC50: −log10 of the molar value.
Readout label: pIC50

Query for beta-catenin/TCF4 engagement (Homo sapiens): what pIC50 does the record show for CC(=O)N1CCC[C@]12CC=CCCCC1(CCCC=CCCCCCC[C@@](C)(C(=O)N[C@@H](Cc3ccccc3)C(=O)N[C@@H](Cc3csc4ccccc34)C(=O)N[C@@H](CCC(N)=O)C(N)=O)NC(=O)[C@H](CCO)NC(=O)[C@H](Cc3ccccc3)NC(=O)[C@H](C)NC(=O)[C@H](C)NC(=O)[C@H](CCC(=O)O)NC(=O)[C@H](CC(=O)O)NC1=O)NC(=O)[C@H](CO)NC(=O)[C@H](CC(=O)O)NC2=O (stereo partly drawn) [I-1529] ?
< 4.70

Query for beta-catenin/TCF4 engagement (Homo sapiens): what pIC50 does the record show for CC(=O)N1CCC[C@]12CC=CCCCC1(CCCC=CCCCOC(=O)N3CC[C@@](C(=O)N[C@@H](Cc4ccccc4Cl)C(=O)N[C@@H](Cc4csc5ccccc45)C(=O)N[C@@H](CCC(N)=O)C(N)=O)(C3)NC(=O)[C@H](CC(N)=O)NC(=O)[C@H](Cc3ccccc3)NC(=O)[C@H](C)NC(=O)[C@H](C)NC(=O)[C@H](CNCCC(F)(F)F)NC(=O)[C@H](CC(=O)O)NC1=O)NC(=O)[C@H](CC(C)(C)C)NC(=O)[C@H](CC(=O)O)NC2=O (stereo partly drawn) [I-1457] ?
< 4.70

Query for beta-catenin/TCF4 engagement (Homo sapiens): what pIC50 does the record show for CCNC(=O)CC[C@H](NC(=O)[C@H](Cc1csc2ccccc12)NC(=O)[C@H](Cc1ccccc1C(F)(F)F)NC(=O)[C@]12CCN(C1)C(=O)OCCCC=CCCCC1(CCCC=CC[C@]3(CCCN3C(C)=O)C(=O)N[C@@H](CC(=O)O)C(=O)N[C@@H](CC(C)(C)C)C(=O)N1)C(=O)N[C@@H](CC(=O)O)C(=O)N[C@@H](Cc1cccc(C(=O)O)c1)C(=O)N[C@@H](CCC(=O)NCC)C(=O)N[C@@H](C)C(=O)N[C@@H](Cc1ccccc1)C(=O)N[C@@H](CC(C)C)C(=O)N2)C(N)=O (stereo partly drawn) [I-2299] ?
5.28

----------
Target: beta-catenin/TCF4 engagement (Homo sapiens, UniProt P35222)
Construct: expressed in transfected cells; host or cells: HEK293
Sequence (P35222 1-781): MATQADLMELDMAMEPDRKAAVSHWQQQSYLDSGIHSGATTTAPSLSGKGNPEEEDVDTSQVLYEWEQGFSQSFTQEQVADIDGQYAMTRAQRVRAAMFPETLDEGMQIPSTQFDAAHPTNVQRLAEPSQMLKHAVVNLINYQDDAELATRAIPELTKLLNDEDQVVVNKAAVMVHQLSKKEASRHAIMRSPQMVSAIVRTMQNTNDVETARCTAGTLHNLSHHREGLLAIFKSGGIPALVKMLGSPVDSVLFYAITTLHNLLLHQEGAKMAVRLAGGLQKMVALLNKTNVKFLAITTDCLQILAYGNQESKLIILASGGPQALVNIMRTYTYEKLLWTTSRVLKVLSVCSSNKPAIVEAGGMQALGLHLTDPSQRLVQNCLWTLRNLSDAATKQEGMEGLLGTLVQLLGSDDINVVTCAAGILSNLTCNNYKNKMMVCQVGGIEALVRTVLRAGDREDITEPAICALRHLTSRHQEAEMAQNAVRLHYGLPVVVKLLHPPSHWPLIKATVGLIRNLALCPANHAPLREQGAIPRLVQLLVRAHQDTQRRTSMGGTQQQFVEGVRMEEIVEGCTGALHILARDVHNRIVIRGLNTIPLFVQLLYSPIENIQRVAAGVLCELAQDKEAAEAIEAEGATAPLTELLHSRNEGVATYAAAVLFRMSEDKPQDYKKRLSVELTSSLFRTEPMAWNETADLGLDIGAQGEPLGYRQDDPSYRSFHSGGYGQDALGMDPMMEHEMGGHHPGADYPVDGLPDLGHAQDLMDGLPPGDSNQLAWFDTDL
Test: Nano-BRET target engagement assay (B-cat-Halo & TCF4-Luc in HEK293 cells)
Assay type: cell-based
Settings: absolute IC50; read-out: NanoBRET Abs IC50
Please respond with reported IC50 for every item in the list.
Numbers only here, please. The scale is µM.

Query for beta-catenin/TCF4 engagement (Homo sapiens, UniProt P35222): what IC50 does the record show for CC(=O)N1CCC[C@]12CC=CCCCC1(CCCC=CCCCOC(=O)N3CC[C@@](C(=O)N[C@@H](Cc4ccccc4C(F)(F)F)C(=O)N[C@@H](Cc4ccc(F)c(Br)c4)C(=O)N[C@@H](C)C(N)=O)(C3)NC(=O)[C@H](CC(C)C)NC(=O)[C@H](Cc3ccccc3)NC(=O)[C@H](C)NC(=O)[C@H](CCC(N)=O)NC(=O)[C@H](Cc3cccc(C(=O)O)c3)NC(=O)[C@H](CC(=O)O)NC1=O)NC(=O)[C@H](CC(C)(C)C)NC(=O)[C@H](CC(=O)O)NC2=O (stereo partly drawn) ?
7.9

Query for beta-catenin/TCF4 engagement (Homo sapiens, UniProt P35222): what IC50 does the record show for CC(=O)N1CCC[C@]12CC=CCCCC1(CCCC=CCCCOC(=O)N3CC[C@@](C(=O)N[C@@H](Cc4ccsc4)C(=O)N[C@@H](Cc4ccc(Cl)c(Cl)c4)C(=O)N[C@@H](CCC(N)=O)C(N)=O)(C3)NC(=O)[C@H](CC(N)=O)NC(=O)[C@H](Cc3ccccc3)NC(=O)[C@H](C)NC(=O)C(C)(C)NC(=O)[C@H]([C@@H](C)O)NC(=O)[C@H](CC(N)=O)NC1=O)NC(=O)[C@H](CC(C)(C)C)NC(=O)[C@H](CC(=O)O)NC2=O (stereo partly drawn) ?
21.6

Ref: patent US20240116985A1
